Source of measurements: patent US20150284335A1

Biological target: PHD2181-417 (Homo sapiens, UniProt Q9GZT9)
Construct: histidine tag (N, cleaved yes); Smt3 (SUMO) tag (N, cleaved yes); made in house; host or cells: E. coli BL21 (pBAD vector)
Sequence (Q9GZT9 181-417): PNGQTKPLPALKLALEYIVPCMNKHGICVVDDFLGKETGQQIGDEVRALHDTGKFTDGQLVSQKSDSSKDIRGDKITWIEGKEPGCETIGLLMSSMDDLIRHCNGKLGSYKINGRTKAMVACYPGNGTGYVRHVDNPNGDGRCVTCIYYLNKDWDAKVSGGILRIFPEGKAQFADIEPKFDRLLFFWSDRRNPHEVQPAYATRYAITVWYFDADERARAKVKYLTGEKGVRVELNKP
Assay: PHD enzyme activity assay ([14C]-succinic acid production);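 also: enzyme expressed in E. coli BL21, assayed in Tris-HCl pH 7.5 with catalase, DTT and ascorbate, [14C]-succinic acid beta-counted after DNP precipitation of residual 2-oxoglutarate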
Format: biochemical
Conditions: inhibition of PHD2181-417 activity; HIF-1α peptide 10 μM, [5-14C]-2-oxoglutaric acid, 10 minutes; read-out: Enzyme pIC50 (converted)

Compound: O=C(O)c1cnn(-c2nc3cc(-c4cccc(O)c4)ccc3[nH]2)c1 [Example 60]
Unit Label: µM
Inequality Symbol: =
IC50: 0.316
--
Compound: C[C@@H](NC(=O)c1nc2ccc(F)cc2[nH]1)C(=O)O [Example 11]
Unit Label: µM
Inequality Symbol: =
IC50: 79.4
--
Compound: CC(NC(=O)c1nc2ccccc2[nH]1)C(=O)O (stereo in doubt) [Example 50]
Unit Label: µM
Inequality Symbol: >
IC50: 100
--
Compound: O=C(O)CNC(=O)c1nc2cc(NC(=O)c3ccccc3)ccc2[nH]1 [Example 29]
Unit Label: µM
Inequality Symbol: =
IC50: 63.1
--
Compound: Cc1c(Br)cc2nc(-n3cc(C(=O)O)cn3)[nH]c2c1C [Example 62]
Unit Label: µM
Inequality Symbol: =
IC50: 0.398
--
Compound: CCCOc1ccc(-c2ccc3[nH]c(C(=O)NCC(=O)O)nc3c2)cc1 [Example 26]
Unit Label: µM
Inequality Symbol: =
IC50: 15.8
--
Compound: O=C(O)c1cnn(-c2nc3cc(-c4ccc(OCc5ccccc5)cc4)ccc3[nH]2)c1 [Example 47]
Unit Label: µM
Inequality Symbol: =
IC50: 0.2
--
Compound: Cc1cc(-c2ccc3[nH]c(C(=O)NCC(=O)O)nc3c2)ccc1Cl [Example 27]
Unit Label: µM
Inequality Symbol: =
IC50: 39.8
--
Compound: COc1cc2nc(-n3cc(C(=O)O)cn3)[nH]c2cc1OC [Example 40]
Unit Label: µM
Inequality Symbol: =
IC50: 0.398
--
Compound: O=C(O)CNC(=O)c1nc2cc(-c3ccc(OCc4cccc(Cl)c4)c(Cl)c3)ccc2[nH]1 [Example 21]
Unit Label: µM
Inequality Symbol: =
IC50: 7.94
--
Compound: C[C@H](NC(=O)c1nc2cc(Cl)c(Cl)cc2[nH]1)C(=O)O [Example 4]
Unit Label: µM
Inequality Symbol: =
IC50: 25.1
--
Compound: C[C@H](NC(=O)c1nc2ccc(F)cc2[nH]1)C(=O)O [Example 10]
Unit Label: µM
Inequality Symbol: >
IC50: 100
--
Compound: O=C(O)c1cnn(-c2nc3cc(-c4cccc(OCc5ccccc5Cl)c4)ccc3[nH]2)c1 [Example 44]
Unit Label: µM
Inequality Symbol: =
IC50: 0.0251
--
Compound: O=C(O)CNC(=O)c1nc2cc(-c3cc(F)cc(OCc4ccccc4)c3)ccc2[nH]1 [Example 19]
Unit Label: µM
Inequality Symbol: =
IC50: 6.31
--
Compound: O=C(O)c1cnn(-c2nc3cc(-c4cccc(OCc5ccc(Cl)cc5)c4)ccc3[nH]2)c1 [Example 45]
Unit Label: µM
Inequality Symbol: =
IC50: 0.0398
--
Compound: O=C(O)c1cnn(-c2nc3cc(-c4cccc(C(F)(F)F)c4)ccc3[nH]2)c1 [Example 48]
Unit Label: µM
Inequality Symbol: =
IC50: 0.0794
--
Compound: O=C(O)CNC(=O)c1nc2cc(-c3ccc(Oc4ccccc4)cc3)ccc2[nH]1 [Example 18]
Unit Label: µM
Inequality Symbol: =
IC50: 7.94
--
Compound: O=C(O)CNC(=O)c1nc2ccc(NS(=O)(=O)c3ccccc3)cc2[nH]1 [Example 30]
Unit Label: µM
Inequality Symbol: =
IC50: 31.6
--
Compound: C[C@@H](NC(=O)c1nc2cc(Cl)c(Cl)cc2[nH]1)C(=O)O [Example 53]
Unit Label: µM
Inequality Symbol: >
IC50: 100
--
Compound: C[C@H](NC(=O)c1nc2ccccc2[nH]1)C(=O)O [Example 2]
Unit Label: µM
Inequality Symbol: =
IC50: 39.8
--
Compound: O=C(O)c1cnn(-c2nc3cc(Cl)ccc3[nH]2)c1 [Example 61]
Unit Label: µM
Inequality Symbol: =
IC50: 0.501
--
Compound: O=C(O)CNC(=O)c1nc2cc(-c3cc(C(=O)NCc4ccccc4)ccc3F)ccc2[nH]1 [Example 24]
Unit Label: µM
Inequality Symbol: =
IC50: 15.8
--
Compound: O=C(O)CNC(=O)c1nc2cc(-c3cccc(OCc4cccc(F)c4)c3)ccc2[nH]1 [Example 16]
Unit Label: µM
Inequality Symbol: =
IC50: 2.51
--
Compound: Cc1cc(-c2ccc3[nH]c(C(=O)NCC(=O)O)nc3c2)cc(C)c1OCc1cccc(Cl)c1 [Example 22]
Unit Label: µM
Inequality Symbol: =
IC50: 12.6
--
Compound: Cc1nn(-c2nc3cc(Cl)c(Cl)cc3[nH]2)c(C)c1C(=O)O [Example 58]
Unit Label: µM
Inequality Symbol: >
IC50: 10
--
Compound: O=C(O)CNC(=O)c1nc2cc(-c3ccc4ccccc4c3)ccc2[nH]1 [Example 25]
Unit Label: µM
Inequality Symbol: =
IC50: 12.6
--
Compound: COc1cccc(-c2ccc3[nH]c(C(=O)NCC(=O)O)nc3c2)c1 [Example 23]
Unit Label: µM
Inequality Symbol: =
IC50: 39.8
--
Compound: O=C(O)CNC(=O)c1nc2cc(-c3cc(Cl)ccc3F)ccc2[nH]1 [Example 28]
Unit Label: µM
Inequality Symbol: =
IC50: 25.1
--
Compound: O=C(O)c1cnn(-c2nc3cc(C(F)(F)F)ccc3[nH]2)c1 [Example 34]
Unit Label: µM
Inequality Symbol: =
IC50: 0.251
--
Compound: O=C(O)c1cnn(-c2nc3cc(-c4cccc(OCc5ccccc5)c4)ccc3[nH]2)c1 [Example 46]
Unit Label: µM
Inequality Symbol: =
IC50: 0.0501
--
Compound: O=C(O)CNC(=O)c1nc2cc(-c3cccc(OCc4cccc(Cl)c4)c3)ccc2[nH]1 [Example 13]
Unit Label: µM
Inequality Symbol: =
IC50: 1.58
--
Compound: Cc1ccc2[nH]c(-n3cc(C(=O)O)cn3)nc2c1C [Example 41]
Unit Label: µM
Inequality Symbol: =
IC50: 7.94
